Source: patent US11911394B2

Run Description: Example 2 antiviral pharmacokinetic analysis, endpoint donor plasma
Type: in vivo
Measurement Setup: ferret, sc, 4 mg/kg, Example 2 Experiment 1, 48 hours post treatment, 4 mg/kg s.c., read-out: baloxavir in plasma ±SD
Assay Readout: concentration at 48 h (ng/mL)
I only need the number, in ng/mL, no unit after it.

Given the entry O=C1c2c(O)c(=O)ccn2N([C@@H]2c3ccccc3SCc3c2ccc(F)c3F)[C@@H]2COCCN12 [baloxavir, baloxavir acid] , report its measured concentration at 48 h.
10.2

###

Run Description: Example 2 antiviral pharmacokinetic analysis, endpoint donor plasma
Assay type: in vivo
Measurement Setup: ferret, sc, 4 mg/kg, Example 2 Experiment 2, 72 hr post treatment, 4 mg/kg s.c., read-out: baloxavir in plasma ±SD
Assay Readout: concentration at 72 h (ng/mL)
Kindly answer with a numeric value in ng/mL, unit omitted.

Which concentration at 72 h value is on record for `O=C1c2c(O)c(=O)ccn2N([C@@H]2c3ccccc3SCc3c2ccc(F)c3F)[C@@H]2COCCN12` ?
12.5
